Catalogue of cytotoxicity at 70.5 h values
test protocol: Human HepG2 cell viability assay in 384 well format
Type: toxicity, cell-based
Design: dose 125 nL, time 70.5 hour; concentration not given beside the values
measurement conditions: HepG2 cells, read-out: Inhibition

>  <compound>
CC(C#N)CSc1ccccc1NCC(=O)NC1CCCCC1 (stereo not drawn)

>  <measure unit>
%

>  <cytotoxicity at 70.5 h>
-1.2

$$$$
>  <compound>
CC(C(=O)N1CCCN(Cc2ccc(C#N)cc2)CC1)n1cncn1 (stereo not drawn)

>  <measure unit>
%

>  <cytotoxicity at 70.5 h>
-1.82

$$$$
>  <compound>
CN(CCc1cnn(C)c1)C(=O)CN1C(=O)OC[C@@H]1c1ccccc1

>  <measure unit>
%

>  <cytotoxicity at 70.5 h>
-5.22

$$$$
>  <compound>
Cc1nnc(NC(=O)CSCc2cc(=O)n3ccccc3n2)s1

>  <measure unit>
%

>  <cytotoxicity at 70.5 h>
-4.73

$$$$
>  <compound>
CCCc1ccc(CN2C[C@H]3C(=O)N(CC4CC4)C[C@@]3(C(=O)O)C2)o1

>  <measure unit>
%

>  <cytotoxicity at 70.5 h>
-6.58

$$$$
>  <compound>
CC1CN(C(=O)c2ccc(=O)n(C)c2)c2ccccc2NC1=O (stereo not drawn)

>  <measure unit>
%

>  <cytotoxicity at 70.5 h>
-0.859

$$$$
>  <compound>
CCc1ccc(CCNc2ncnc3c2CCN(C(=O)C2CC2)C3)cc1

>  <measure unit>
%

>  <cytotoxicity at 70.5 h>
7.48

$$$$
>  <compound>
CC(C)(C)C(=O)NCCCc1nc2ccccc2[nH]1

>  <measure unit>
%

>  <cytotoxicity at 70.5 h>
-11.6

$$$$
>  <compound>
Cc1cc(C)n(CC2CCCN2C(=O)c2c(C)noc2C)n1 (stereo not drawn)

>  <measure unit>
%

>  <cytotoxicity at 70.5 h>
18.5

$$$$
>  <compound>
CN(C)C(=O)C1CN(Cc2ccccc2)CCN(S(C)(=O)=O)C1 (stereo not drawn)

>  <measure unit>
%

>  <cytotoxicity at 70.5 h>
-6.37

$$$$
>  <compound>
Cc1ccc(S(=O)(=O)NCC(C)(C)N)c(F)c1

>  <measure unit>
%

>  <cytotoxicity at 70.5 h>
-6.25

$$$$
>  <compound>
CNC(=O)CN1CC[C@H]2CN(C(=O)c3cccc(C)c3)C[C@H]2C1

>  <measure unit>
%

>  <cytotoxicity at 70.5 h>
-2.46

$$$$
>  <compound>
CN(Cc1ccccn1)C1COC2(CCN(Cc3cccnc3)CC2)C1 (stereo not drawn)

>  <measure unit>
%

>  <cytotoxicity at 70.5 h>
24.4

$$$$
>  <compound>
NC(=O)C1CCN(C(=O)Cn2nc(-c3ccccc3)oc2=O)C1 (stereo not drawn)

>  <measure unit>
%

>  <cytotoxicity at 70.5 h>
-5.69

$$$$
>  <compound>
COCCN1C[C@@H]2CN(c3cc(OC)ncn3)CCC[C@]2(C(=O)O)C1

>  <measure unit>
%

>  <cytotoxicity at 70.5 h>
9.96

$$$$
>  <compound>
Cc1noc(C)c1CN(C)CC(=O)N1CCc2sccc2C1

>  <measure unit>
%

>  <cytotoxicity at 70.5 h>
-1.77

$$$$
>  <compound>
CC(C)c1cc(C(=O)NCCN2CCCCC2CO)on1 (stereo not drawn)

>  <measure unit>
%

>  <cytotoxicity at 70.5 h>
-7

$$$$
>  <compound>
Cc1ccc(CNCC2CCCN2c2cccnn2)s1 (stereo not drawn)

>  <measure unit>
%

>  <cytotoxicity at 70.5 h>
4.46

$$$$
>  <compound>
COCC[C@]1(O)CCN(Cc2nc(C(C)C)cs2)C[C@H]1C

>  <measure unit>
%

>  <cytotoxicity at 70.5 h>
-6.41

$$$$
>  <compound>
NC(=O)C1CN(c2ccc3c(Cl)ccnc3c2F)CCO1 (stereo not drawn)

>  <measure unit>
%

>  <cytotoxicity at 70.5 h>
-7.96

$$$$
>  <compound>
CC(C)C1CN(C(=O)c2cc(=O)[nH]c(=O)[nH]2)CCCN1CC1CC1 (stereo not drawn)

>  <measure unit>
%

>  <cytotoxicity at 70.5 h>
-0.864

$$$$
>  <compound>
Cc1nc(NCCN2CCCC2=O)cc(C2CN(C(C)C)CCO2)n1 (stereo not drawn)

>  <measure unit>
%

>  <cytotoxicity at 70.5 h>
1.39

$$$$
>  <compound>
CC(=O)NC1CCN(c2nc(N(C)C)nc3c2CCN(C(C)=O)C3)CC1

>  <measure unit>
%

>  <cytotoxicity at 70.5 h>
-7.29

$$$$
